# Experimental System: papain (Carica papaya)
# Test: Papain digestion 2 of linker-payload compounds, in vitro payload release
# Format: biochemical
# Settings: 10 μM compound, papain 2 molar equivalents, PBS pH 7.4, room temperature, 2 hours
Where a SMILES comes first, the peptide text is derived from it. The star is where a group is joined. X1 = CSCCc1ccc(NC(=O)NCc2ccc3c(c2)CN(C2CCC(=O)N(CN*)C2=O)C3=O)cc1Cl; Hexanoyl(6-maleimido) = O=C1C=CC(=O)N1CCCCCC(=O)*
Recorded Metric: By-Products: GGFG*G (payload-CH2NHC(O)CH2NH2, cleavage between two glycines of linker)

// worked examples, By-Products: GGFG*G (payload-CH2NHC(O)CH2NH2, cleavage between two glycines of linker) included
>  <Molecule>
Cc1sc2c(c1C)C(c1ccc(Cl)cc1)=N[C@@H](CC(=O)NCCCCCC(=O)NCc1cccc3c1C(=O)N(C1CCC(=O)N(CNC(=O)CNC(=O)CNC(=O)[C@H](Cc4ccccc4)NC(=O)CNC(=O)CNC(=O)CCCCCN4C(=O)C=CC4=O)C1=O)C3=O)c1nnc(C)n1-2 (stereo partly shown)

>  <Experimental System>
papain (Carica papaya)

>  <Assay Value>
40.5%,

$$$$
>  <Molecule>
CSCCc1ccc(NC(=O)NCc2ccc3c(c2)CN(C2CCC(=O)N(CNC(=O)CNC(=O)CNC(=O)[C@H](Cc4ccccc4)NC(=O)CNC(=O)CNC(=O)CCCCCN4C(=O)C=CC4=O)C2=O)C3=O)cc1Cl (stereo partly shown) [Compound (XVII)] ({Hexanoyl(6-maleimido)}-GGFGG-X1)

>  <Experimental System>
papain (Carica papaya)

>  <Assay Value>
72.5%,

$$$$
>  <Molecule>
N#Cc1ccc(O[C@H]2CC[C@H](NC(=O)c3ccc(N4CCC(CN5CCN(c6cc7c(cc6F)C(=O)N(C6CCC(=O)N(CNC(=O)CNC(=O)CNC(=O)[C@H](Cc8ccccc8)NC(=O)CNC(=O)CNC(=O)CCCCCN8C(=O)C=CC8=O)C6=O)C7=O)CC5)CC4)nn3)CC2)cc1Cl (stereo partly shown)

>  <Experimental System>
papain (Carica papaya)

>  <Assay Value>
78.3%,

$$$$

# next molecule below
State its By-Products: GGFG*G (payload-CH2NHC(O)CH2NH2, cleavage between two glycines of linker) for this molecule: O=C(CCCCCN1C(=O)C=CC1=O)NCC(=O)NCC(=O)N[C@@H](Cc1ccccc1)C(=O)NCC(=O)NCC(=O)NCN1C(=O)CCC(N2Cc3c(C#CCCCNC(=O)c4ccc(NC(=O)[C@@H]5NC6(CCCCC6)[C@@]6(C(=O)Nc7cc(Cl)ccc76)[C@H]5c5cccc(Cl)c5F)cc4)cccc3C2=O)C1=O (stereo partly shown) 57.0%,

====

# Experimental System: papain (Carica papaya, UniProt P00784)
# Sequence (P00784 134-345): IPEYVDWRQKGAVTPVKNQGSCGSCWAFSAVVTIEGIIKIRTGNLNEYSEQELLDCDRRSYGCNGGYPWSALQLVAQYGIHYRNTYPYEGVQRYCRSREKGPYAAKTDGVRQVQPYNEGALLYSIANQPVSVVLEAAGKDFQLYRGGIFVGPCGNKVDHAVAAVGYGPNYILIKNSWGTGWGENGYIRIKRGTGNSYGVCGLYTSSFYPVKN
# Test: Papain digestion 2 of linker-payload compounds, in vitro payload release
# Assay type: biochemical
# Settings: papain treatment
Recorded Metric: yield of desired payload released by papain (in words)

>  <Compound>
CNCCOCCc1ccc(NC(=O)NCc2ccc3c(c2)CN(C2CCC(=O)N(CNC(=O)CNC(=O)[C@H](Cc4ccccc4)NC(=O)CNC(=O)CNC(=O)CCCCCN4C(=O)C=CC4=O)C2=O)C3=O)cc1Cl (stereo partly drawn)

>  <Assay Value>
excellent yield

$$$$
>  <Compound>
Cn1cc(-c2cc(NC(=O)CCCCC(=O)NCCCCNc3cccc4c3C(=O)N(C3CCC(=O)N(CNC(=O)CNC(=O)[C@H](Cc5ccccc5)NC(=O)CNC(=O)CNC(=O)CCCCCN5C(=O)C=CC5=O)C3=O)C4=O)ccc2Oc2ccc(F)cc2F)c2cc[nH]c2c1=O.O=C(O)C(F)(F)F (stereo partly drawn)

>  <Assay Value>
excellent yield

$$$$
